assay remarks: Pharmacokinetic study in rats
Format: in vivo, Sprague-Dawley (SD) rats
assay conditions: Sprague-Dawley, rat, plasma; male SD rats, IV, dose 1 mg/kg
# clearance listing for each entry below
The figure you give is taken to be in mL/min/kg; do not add the unit.

compound | clearance (mL/min/kg)
CCn1c(-c2cc(C#CCN3CCCOCC3)cnc2[C@H](C)OC)c2c3cc(ccc31)-c1csc(n1)C[C@H](NC(=O)[C@H]1C[C@@H]1C)C(=O)N1CCC[C@H](N1)C(=O)OCC(C)(C)C2 (single isomer, unassigned) [Compound Z604] | 2.46

Query :: Form field: reported clearance of CCn1c(-c2cc(N3CCN(C)CC3)cnc2[C@H](C)OC)c2c3cc(ccc31)-c1csc(n1)C[C@H](NC(=O)[C@H]1[C@H](C)[C@@H]1C)C(=O)N1CCC[C@H](N1)C(=O)OCC(C)(C)C2 (atropisomer, axis not shown; (Ra)) [Control compound 1, reference compound]
Result :: 42.8

Query :: Requested field: clearance. Item: CCn1c(-c2cc(C#CCN3CCCOCC3)cnc2[C@H](C)OC)c2c3cc(ccc31)-c1csc(n1)C[C@H](NC(=O)[C@H]1[C@H](C)[C@@H]1C)C(=O)N1CCC[C@H](N1)C(=O)OCC(C)(C)C2 (single isomer, unassigned) [Compound Z504]
Result :: 4

Query :: Sample CCn1c(-c2cc(C#CCN3CCS(=O)(=O)CC3)cnc2[C@H](C)OC)c2c3cc(ccc31)-c1csc(n1)C[C@H](Nc1nnc3cc(C)ccn13)C(=O)N1CCC[C@H](N1)C(=O)OCC(C)(C)C2 (atropisomer, axis not shown; (Ra)) [Compound Z911] — what was its clearance?
Result :: 0.41
